Tested on: Sporothrix schenckii
Experiment: Antimicrobial activity against Sporothrix schenckii after 24 hrs
Format: functional
Each record is given yes if its reported MIC is strictly below 20 µg/mL. Records at or above 20 µg/mL are given no.

Cc1ccc2c(c1)CN(c1ccc(F)cc1)CO2 ... no
Cc1ccc2c(c1)CN(c1ccc(Cl)cc1)CO2 ... yes
c1ccc(N2COc3ccc4ccccc4c3C2)cc1 ... no
c1ccc(CN2COc3ccc4ccccc4c3C2)cc1 ... no
CC(=O)N1CCN(c2ccc(OCC3COC(Cn4ccnc4)(c4ccc(Cl)cc4Cl)O3)cc2)CC1 (stereo unspecified) [KETOCONAZOLE] ... yes

MIC under 20 µg/mL? Item: Clc1ccc(N2COc3ccc4ccccc4c3C2)cc1 no

MIC under 20 µg/mL? Item: c1ccc2c3c(ccc2c1)OCN(C1CCCCC1)C3 no

MIC under 20 µg/mL? Item: Fc1ccc(N2COc3ccc4ccccc4c3C2)cc1 no

MIC under 20 µg/mL? Item: Clc1ccc(N2COc3ccc4ccccc4c3C2)c(Cl)c1 no

MIC under 20 µg/mL? Item: Cc1ccc2c(c1)CN(CCN1COc3ccc(C)cc3C1)CO2 yes
